- system: human S1P1 receptors (Homo sapiens)
- Construct: host or cells: HEK293
- Sequence (P21453 whole entry): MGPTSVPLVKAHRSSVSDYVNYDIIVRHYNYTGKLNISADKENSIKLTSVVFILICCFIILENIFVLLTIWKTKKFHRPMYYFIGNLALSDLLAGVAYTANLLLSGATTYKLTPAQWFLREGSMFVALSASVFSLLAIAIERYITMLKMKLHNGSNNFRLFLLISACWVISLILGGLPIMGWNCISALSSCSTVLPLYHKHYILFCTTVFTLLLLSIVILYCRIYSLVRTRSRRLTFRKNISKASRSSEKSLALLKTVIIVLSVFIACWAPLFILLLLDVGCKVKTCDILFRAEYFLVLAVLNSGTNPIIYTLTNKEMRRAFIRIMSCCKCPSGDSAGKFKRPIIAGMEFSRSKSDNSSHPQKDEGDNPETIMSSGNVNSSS
- test method notes: S1P1R antagonist assay (fluorescent membrane potential dye, cAMP readout)
- Type: cell-based
- recorded conditions: HEK293 cells expressing human S1P1 receptors and CNG channel; 500 nM NECA; S1P1R agonist 10 nM; 90 minutes; read-out: EC50 or IC50 value
Item-by-item account of IC50

Please review the entries below; each comes with its answer.
Requested field: IC50. Item: "CC(C)CC(=O)N[C@@H](COCc1ccccc1)C(=O)Nc1ccc(Oc2ccc(F)cc2)cc1"
300 to 1000 nM

Requested field: IC50. Item: "O=C(CN1CCN(c2ccccn2)CC1)N[C@@H](COCc1ccccc1)C(=O)Nc1ccc(Oc2ccc(F)cc2)cc1"
> 1000 nM

Requested field: IC50. Item: "Cn1cnc(CC(=O)N[C@@H](COCc2ccccc2)C(=O)Nc2ccc(Oc3ccccc3)cc2)c1"
≤ 300 nM

Requested field: IC50. Item: "O=C(Cc1cnc[nH]1)N[C@@H](COCc1ccccc1)C(=O)Nc1ccc(Cc2ccccc2)cc1"
≤ 300 nM

# next molecule below
Requested field: IC50. Item: "O=C(Nc1ccc(Oc2ccc(F)cc2)cc1)[C@@H]1C[C@@H](Cc2c(F)cc(F)cc2F)CN1C(=O)Cn1ccnn1"
≤ 300 nM

Data provenance is patent US8791102B2.
